The measurements presented in this section are drawn from PubChem BioAssay (NCI).

- Tested on: TK-10 renal
- assay_text: NCI tumour cell line growth inhibition, 48 h
TGI values by entry

COC(=O)CNC(=O)[C@@H](OC)[C@@H]1Cc2cc3cc(OC4CC(OC5CC(O)C(O)C(C)O5)C(O)C(C)O4)c(C)c(O)c3c(O)c2C(=O)[C@H]1OC1CC(OC2CC(OC3CC(C)(O)C(O)C(C)O3)C(O)C(C)O2)C(O)C(C)O1 (stereo partly drawn) ... > 50 µM
O=C(N/N=C\c1ccc2ccccc2c1)Nc1ccc([N+](=O)[O-])cc1 ... > 55.9 µM

# ---- query compound ----
*Q* TGI lookup needed for CC1(C)Oc2ccc3c(=O)cc(-c4ccc(F)cc4)oc3c2C1C(=O)O (stereo not drawn) , thanks.
*A* > 100 µM

====

- Test system: HCT-15 colon
- assay_text: NCI tumour cell line growth inhibition, 48 h; in the data active = GI50 below about 0.43 µM; inactive = the rest
Select the matching outcome among YES (active), NO (inactive)

Some solved entries appear below for comparison.
CC(CNC(Cc1ccccc1)c1ccccc1)NC(Cc1ccccc1)c1ccccc1 (stereo not drawn) ... NO
CC1C(=O)C(C)C(c2ccccc2)N(N=O)C1c1ccccc1 (stereo not drawn) ... NO
CC(=O)Nc1ccc2c(c1)oc(=O)c1cc(NC(C)=O)ccc12 ... NO
COc1cc[nH]c1/C=C1\C(=O)Nc2ccc(F)c(I)c21 ... NO
Fc1cccc(COc2ccc(Nc3ncnc4cc(-c5ccc[nH]5)sc34)cc2Cl)c1 ... YES
Nc1cc(N)c(N)cc1N ... NO
COc1c(N2CCN(CN3C(=O)C(=Nc4ccc(S(=O)(=O)Nc5ncccn5)cc4)c4ccccc43)C(C)C2)c(F)cc2c(=O)c(C(=O)O)cn(C3CC3)c12 (stereo not drawn) ... NO

*Q* Assay result, entry C=C1C(=O)O[C@H]2[C@H]1CC/C(COC(=O)N1CCC[C@H]1C(=O)Nc1ccc(OC)c(C(N)=O)c1O)=C\CC[C@@]1(C)O[C@@H]21 — outcome?
*A* NO

====

TGI values by entry
- System: OVCAR-5 ovarian
- assay_text: NCI tumour cell line growth inhibition, 48 h
Quick note: give the figure in µM, leave out the unit.

See these solved cases before continuing.
C#CC[C@@H]1C[C@]2(C)[C@H]3CC=C4[C@H]5CC(C)(C)CC[C@]5(C(=O)NCCCCN)CC[C@@]4(C)[C@]3(C)CC[C@H]2C(C)(C)[C@H]1OC(C)=O ... 2.99
CCCCCCCCCCCCCC(=O)CBr ... 49.8
CN(C)C(=S)N=Nc1c(O)[nH]c2ccccc12 ... 21

*Q* Requested read-out TGI, target or system OVCAR-5 ovarian, entry COc1ccc2c(c1)c1c(n2CCN2CCCCC2)-c2ccccc2CC1
*A* 31.2

*Q* Requested read-out TGI, target or system OVCAR-5 ovarian, entry COc1cc(Nc2nc(N[C@H]3CCCC[C@@H]3N)nc3cc[nH]c(=O)c23)cc(OC)c1
*A* 14.6

*Q* Requested read-out TGI, target or system OVCAR-5 ovarian, entry CSC1=C(c2ccc(Cl)cc2)SC(N2CCCCC2)N1c1ccc([N+](=O)[O-])cc1 (stereo unspecified)
*A* 65.9

*Q* Requested read-out TGI, target or system OVCAR-5 ovarian, entry Cc1nc2sc(C(=O)Nc3ccccc3)c(N)c2cc1C(=O)/C=C/c1ccccc1
*A* 7.13

*Q* Requested read-out TGI, target or system OVCAR-5 ovarian, entry COc1ccc2nc3cc(Cl)ccc3c(NCCCN(CCCl)CCCl)c2c1
*A* 0.31

*Q* Requested read-out TGI, target or system OVCAR-5 ovarian, entry CC(C)=CCC/C(C)=C/CC/C(C)=C/CC/C(C)=C/CC/C(C)=C\CC/C(C)=C/CC/C(C)=C/CC/C(C)=C/Cc1cc(O)ccc1O
*A* 36.4

*Q* Requested read-out TGI, target or system OVCAR-5 ovarian, entry Nc1cc(N)c(N)cc1N
*A* 4.99

*Q* Requested read-out TGI, target or system OVCAR-5 ovarian, entry COc1ccc2oc3cccc(NCCN(C)C)c3c(=O)c2c1
*A* 24.9

====

- Test system: T-47D breast
- assay_text: NCI tumour cell line growth inhibition, 48 h
TGI values by entry

*Q* TGI lookup needed for CCC(=O)O[C@H]1CC[C@H]2[C@@H]3CCC4=C/C(=N/NC(=O)c5cccc6c(=O)c7ccccc7[nH]c56)CC[C@]4(C)[C@H]3CC[C@]12C , thanks.
*A* > 25 µM

*Q* TGI lookup needed for C=C1C(=O)OC2C1CC(O)/C(C)=C\CCC1(C)OC21 (stereo not given) , thanks.
*A* > 100 µM

*Q* TGI lookup needed for C(=C\C(SCc1ccccc1)SCc1ccccc1)/c1ccccc1 , thanks.
*A* > 10 µM

*Q* TGI lookup needed for Cn1c(-c2ccc(/C=N\N3CCN(/N=C/c4ccc(-c5c[n+]6ccccc6n5C)cc4)CC3)cc2)c[n+]2ccccc12 , thanks.
*A* > 100 µM

*Q* TGI lookup needed for COc1ccc2c3c(c(=O)n(C)c2c1OC)C=CC(C)(C)O3 , thanks.
*A* > 100 µM

====

- Test system: SK-OV-3 ovarian
- assay_text: NCI tumour cell line growth inhibition, 48 h; in the data active = GI50 below about 0.43 µM; inactive = the rest
Select the matching outcome among Y for active, N for inactive

CO/N=C(\C)c1ccc(Nc2cc(-c3ccccc3)nc3c(O)cccc23)cc1 ... N
COc1ccc(-c2cn(-c3ccccc3)c(-c3ccccc3)n2)cc1OC ... N
CC(=O)O[C@@H]1CC2C(C)(C)CCCC2(C)C2=C1C(=O)C(C(C)C)=CC2=O (stereo not given in full) ... N
Clc1nc(Cl)c2c(ncn2C/C=C\Cn2cnc3c(Cl)nc(Cl)nc32)n1 ... N
COc1cc[nH]c1/C=C1\C(=O)Nc2ccc(F)c(I)c21 ... N
CC(C)(C)c1ccc(S(=O)(=O)N[C@H]2CC[C@H]3[C@@H]4CCc5cc(OS(=O)(=O)O)ccc5[C@H]4CC[C@]23C)cc1 ... N
C[C@@H]1CN(CC(=O)N2CC(C)(C)c3nc(CO)c(Cc4ccc(F)cc4)cc32)[C@@H](CN2CCOC[C@H]2C)CN1 ... Y
CN(C)C(=S)N=Nc1c(O)[nH]c2ccccc12 ... N
COc1ccc2c(c1)OC(N(C(C)=O)C(C)=O)=C(C#N)C2c1ccc(F)cc1 (stereo not given) ... N

*Q* Assay result, entry C[C@@H]1COCCN1c1cc(C2(S(C)(=N)=O)CC2)nc(-c2ccnc3[nH]ccc23)n1 (stereo not given in full) — outcome?
*A* N

====

- Tested on: NCI-H460 lung
- assay_text: NCI tumour cell line growth inhibition, 48 h
measurement_label: log10(TGI) (log10 of the value in µM)
The common logarithm of TGI in µM is what is listed.

CCC(CC)n1c(C)nc2c1C(=O)c1ccccc1C2=O ... 1.70

*Q* log10(TGI) lookup needed for C=C1CC[C@@H]2[C@](C)(COC(C)=O)[C@H](OC(C)=O)CC[C@@]2(C)[C@@H]1CC(Nc1ccc(S(=O)(=O)Nc2nccc(C)n2)cc1)C1=CCOC1=O (stereo not given in full) , thanks.
*A* 1.26

*Q* log10(TGI) lookup needed for CNC1=CC(=O)C2=C(C1=O)[C@H]1CC[C@]3(C)C(=O)CC[C@H]3[C@@H]1CC2 , thanks.
*A* 1.60

*Q* log10(TGI) lookup needed for OC1COC(n2c3ccc(Br)cc3c3ccc4c5ccccc5[nH]c4c32)C(O)C1O (stereo not given) , thanks.
*A* 1.27

*Q* log10(TGI) lookup needed for Cc1cc2c3ccccc3n(C)c2c2c1C(=O)C=CC2=O , thanks.
*A* 1.52

*Q* log10(TGI) lookup needed for Cc1cn(Cc2ccccc2CCl)c(=O)[nH]c1=O , thanks.
*A* 1.65

====

- System: UACC-257 melanoma
- assay_text: NCI tumour cell line growth inhibition, 48 h
TGI values by entry

*Q* TGI lookup needed for CCOC(=O)C(NC(=O)Nc1ccc(Cl)c(Cl)c1)C(F)(F)F (stereo not drawn) , thanks.
*A* > 100 µM

*Q* TGI lookup needed for c1ccc(CSc2nc(N3CCOCC3)c3cn[nH]c3n2)cc1 , thanks.
*A* 29.9 µM

*Q* TGI lookup needed for CC1S(=O)(=O)OCCOS1(=O)=O , thanks.
*A* > 100 µM

====

- Test system: KM12 colon
- assay_text: NCI tumour cell line growth inhibition, 48 h
measurement_label: TGI

See these solved cases before continuing.
COc1ccc2oc3cccc(NCCN(C)C)c3c(=O)c2c1 ... 26.7 µM
COCc1cc2c(cc1/C=C/[N+](=O)[O-])OCO2 ... 35.8 µM
CC(C)CC1=[N+]=C(NC#N)N=C(CCC(=O)Nc2ccccc2[N+](=O)[O-])C1 ... > 100 µM
S=c1[nH]c2ccc(Br)cc2c(=S)n1-c1ccccc1 ... 72.5 µM
COC(=O)CNC(=O)[C@@H](OC)[C@@H]1Cc2cc3cc(OC4CC(OC5CC(O)C(O)C(C)O5)C(O)C(C)O4)c(C)c(O)c3c(O)c2C(=O)[C@H]1OC1CC(OC2CC(OC3CC(C)(O)C(O)C(C)O3)C(O)C(C)O2)C(O)C(C)O1 (stereo partly drawn) ... > 50 µM
CSc1nc2c(nc(N)n2C2OCC(O)C(O)C2O)c(=O)n1C (stereo not drawn) ... > 100 µM
CC(C)C1OC(=O)/C=C/C=C/C=C/C=C/C=C/CC(O)CC(O)CC(O)CC(O)CC(O)CC(O)CC(O)CC(O)/C=C/C1C (stereo not drawn) ... > 100 µM
CN(C)c1ccc(/C=C/C=C(/C#N)c2ccccc2)cc1 ... 34.1 µM

*Q* Requested read-out TGI, target or system KM12 colon, entry Nc1nc2c(c(=O)[nH]1)CN(c1ccc(S(N)(=O)=O)cc1)CN2
*A* > 100 µM

*Q* Requested read-out TGI, target or system KM12 colon, entry COC(=O)c1csc(-c2nc(CCNC(=O)OC(C)(C)C)sc2Br)n1
*A* > 100 µM
